Each recorded value in this set is attributed to ChEMBL document CHEMBL1127537.

Catalogue of pKi values
Target: Sigma 2 receptor
Test: Binding affinity against sigma-2 receptor in rat liver using radioligand [3H]DTG in the presence of dextrallorphan.
pKi is defined as minus the log10 of a concentration measured in mol/L.

Known results for compounds:
>>> recorded_result("O=C(NC1CCN(Cc2ccccc2)CC1)c1ccc(I)cc1")
7.60
>>> recorded_result("O=C(NC1CCN(Cc2ccccc2)CC1)c1cccc(I)c1")
7.07

Here is another compound to look at.
In: // fetch pKi given entry O=C(NC1CCN(Cc2ccccc2)CC1)c1ccccc1I
Out: 7.53

---

Biological target: Glutamate NMDA receptor
Assay: Binding affinity against phencyclidine receptor in rat brain membranes using radioligand [3H]TCP.
pKi: −log10 of the molar value.
Listed here are molecules together with their documented pKi.

// solved cases for pKi follow
>>> recorded_result("O=C(NC1CCN(Cc2ccccc2)CC1)c1cccc(I)c1")
"< 4.00"
>>> recorded_result("O=C(NC1CCN(Cc2ccccc2)CC1)c1ccc(I)cc1")
"< 4.00"

Then there is this molecule:
In: Would you please give the reported pKi of O=C(NC1CCN(Cc2ccccc2)CC1)c1ccccc1I with Glutamate NMDA receptor?
Out: < 4.00
